# Tested on: TA 98 and TA104 strains containing pMOL1067 or pMOL1068
# ASSAY_CONTEXT: TA 98 and TA104 strains containing pMOL1067 or pMOL1068
VALUE_TYPE: OUTCOME (genotoxicity, final outcome)

COMPOUND	OUTCOME (genotoxicity, final outcome)
CCN(CC)N=O	pos
c1ccc2c(c1)cc1ccc3cccc4ccc2c1c34	pos
c1ccc2c(c1)ccc1c3ccccc3ccc21	pos
OO [H2O2, hydrogen peroxide]	pos
COC(=O)N/N=C/c1c[n+]([O-])c2ccccc2[n+]1[O-]	pos

Prompt line: Which measured OUTCOME (genotoxicity, final outcome) value corresponds to c1cc2ccc3cccc4ccc(c1)c2c34 ?
Response line: pos

Prompt line: Follow-up entry: c1ccc2cc3ccccc3cc2c1
Response line: neg

Prompt line: Follow-up entry: CCn1cc(C(=O)O)c(=O)c2ccc(C)nc21
Response line: pos

---

# System: TA 98 and TA104 strains containing pMOL1067 or pMOL1068
VALUE_TYPE: OUTCOME (genotoxicity, final outcome)

Here are 5 compounds together with their reported answers.
COMPOUND	REPORTED_VALUE
ClCC1CO1 (centres unmarked) [Epichlorohydrine]	pos
[Cl][Cd][Cl]	neg
CCOS(C)(=O)=O [Ethylmethanesulphonate]	pos
COc1ccc2nc3cc(Cl)ccc3c(NCCCNCCCl)c2c1	pos
[Cl-].[Cl-].[Zn+2]	neg

Prompt line: Which measured OUTCOME (genotoxicity, final outcome) value corresponds to c1ccc2ccccc2c1 ?
Response line: neg

Prompt line: Follow-up entry: O=P1(N(CCCl)CCCl)NCCCO1 (centres unmarked) [Cyclophosphamide]
Response line: neg

Prompt line: Follow-up entry: c1ccc2c(c1)-c1cccc3cccc-2c13
Response line: pos

---

# Tested on: S. typhimurium TA104 containing pMOL1069
# ASSAY_CONTEXT: TA104 pMOL1069
VALUE_TYPE: MINIMAL DETECTED CONCENTRATION (MDC) (nmol/assay)
Value expressed in nmol/assay; do not type the unit.

Here are 3 compounds together with their reported answers.
COMPOUND	DISPLAY_UNIT	REPORTED_VALUE
c1ccc2c(c1)cc1ccc3cccc4ccc2c1c34 [BαP, benzo-α-pyrene]	nmol/assay	0.16
CO[C@@H]1[C@@H](OC(N)=O)[C@@H](O)[C@H](Oc2ccc3c(O)c(NC(=O)c4ccc(O)c(CC=C(C)C)c4)c(=O)oc3c2C)OC1(C)C [novobiocine]	nmol/assay	0.32
OO [H2O2, hydrogen peroxide]	nmol/assay	5.9

Prompt line: Which measured MINIMAL DETECTED CONCENTRATION (MDC) value corresponds to c1ccc2c(c1)ccc1c3ccccc3ccc21 [chrysene] ?
Response line: 0.55

Prompt line: Follow-up entry: COS(C)(=O)=O [MMS, Methylmethanesulphonate]
Response line: 7.3

---

# System: S. typhimurium TA98 containing pMOL1067
# ASSAY_CONTEXT: TA98 pMOL1067
Let's look at some molecules and their measured MINIMAL DETECTED CONCENTRATION (MDC).
Value and unit, in that order.

MOLECULE	REPORTED_VALUE
COS(C)(=O)=O [MMS, Methylmethanesulphonate]	7.3 nmol/assay
OO [H2O2, hydrogen peroxide]	1.5 nmol/assay
c1ccc2c(c1)ccc1c3ccccc3ccc21 [chrysene]	5.5 nmol/assay

Prompt line: Which measured MINIMAL DETECTED CONCENTRATION (MDC) value corresponds to c1ccc2c(c1)cc1ccc3cccc4ccc2c1c34 [BαP, benzo-α-pyrene] ?
Response line: 0.16 nmol/assay

Prompt line: Follow-up entry: CO[C@@H]1[C@@H](OC(N)=O)[C@@H](O)[C@H](Oc2ccc3c(O)c(NC(=O)c4ccc(O)c(CC=C(C)C)c4)c(=O)oc3c2C)OC1(C)C [novobiocine]
Response line: 0.079 nmol/assay

The origin of these recorded values is patent US6521751B1.
